The reported measurements were obtained from patent US11208407B2.

molecular target: IDO1 (Homo sapiens); test: IDO1 Cellular Assay in HeLa Cells Stimulated with IFNγ; format: cell-based; conditions: IFNγ 100 ng/mL, 300 uM L-tryptophan, about 48 hours, read-out: IDO HeLa Cell Assay, IC50
Sequence (P14902 whole entry): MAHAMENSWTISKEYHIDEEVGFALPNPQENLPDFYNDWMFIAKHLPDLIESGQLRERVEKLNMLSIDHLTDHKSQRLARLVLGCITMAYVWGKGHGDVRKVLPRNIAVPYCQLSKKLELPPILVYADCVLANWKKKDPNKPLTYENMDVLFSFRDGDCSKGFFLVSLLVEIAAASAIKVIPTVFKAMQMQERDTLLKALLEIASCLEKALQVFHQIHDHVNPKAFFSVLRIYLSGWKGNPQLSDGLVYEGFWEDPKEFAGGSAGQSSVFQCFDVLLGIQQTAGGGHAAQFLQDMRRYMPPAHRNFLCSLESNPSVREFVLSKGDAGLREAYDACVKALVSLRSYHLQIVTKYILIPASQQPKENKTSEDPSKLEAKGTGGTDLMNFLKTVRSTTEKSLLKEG
Attribute: pIC50
By convention, pIC50 is the negative base-10 log of a molar concentration.

[
  {
    "COMPOUND": "COc1cc(C(F)(F)F)ncc1-c1ccc(C2(c3nc4cc(C(F)(F)F)cnc4[nH]3)COC2)cc1 [Example 41]",
    "NUMERIC_VALUE": 8.12
  },
  {
    "COMPOUND": "N#Cc1cccc(C(=O)Nc2ccc(C3(c4nc5cc(Cl)cnc5[nH]4)CCC3)cc2F)c1 [Example 18]",
    "NUMERIC_VALUE": 9.13
  },
  {
    "COMPOUND": "N#Cc1cccc(C(=O)Nc2ccc(C3(c4nc5cc(C(F)(F)F)cnc5[nH]4)CCC3)cc2F)c1 [Example 19]",
    "NUMERIC_VALUE": 9.03
  }
]

# context switch: different compound, same pIC50
stdin: Item C=Cc1cc(C2(c3nc4cc(C#N)cnc4[nH]3)CCC2)ccc1Nc1ccn(C)n1 [Example 20] has what recorded pIC50?
stdout: 6.75

====

biological target: UniProtKB P14902; test: IDO1 Cellular Assay in HeLa Cells Stimulated with IFNγ; type: cell-based; conditions: IFNγ 100 ng/mL, 300 uM L-tryptophan, about 48 hours, read-out: IDO HeLa Cell Assay, IC50
Attribute: IC50
API: value field is a number in nM; no unit string.

[
  {
    "COMPOUND": "O=C(Nc1cccc(F)c1)c1ccc(C2(c3nc4ncc(C(F)(F)F)cc4[nH]3)CCC2)cc1 [Example 31]",
    "UNIT": "nM",
    "IC50": 2.09
  },
  {
    "COMPOUND": "O=C(Nc1ccc(C2(c3nc4ncc(Cl)cc4[nH]3)CC(F)(F)C2)cc1)c1cccc(Cl)c1 [Example 24]",
    "UNIT": "nM",
    "IC50": 1.85
  },
  {
    "COMPOUND": "O=C(Nc1ccc(C2(c3nc4cc(Br)cnc4[nH]3)CCC2)cc1Cl)c1cccc(Br)c1 [Example 12]",
    "UNIT": "nM",
    "IC50": 1.73
  },
  {
    "COMPOUND": "N#Cc1cnc2nc(C3(c4ccc(C(=O)NC5CCCCC5)cc4)CC(F)(F)C3)[nH]c2c1 [Example 28]",
    "UNIT": "nM",
    "IC50": 890
  },
  {
    "COMPOUND": "N#Cc1cccc(NC(=O)c2ccc(C3(c4nc5ncc(C#N)cc5[nH]4)CC(F)(F)C3)cc2)c1 [Example 38]",
    "UNIT": "nM",
    "IC50": 5.09
  },
  {
    "COMPOUND": "N#Cc1cccc(NC(=O)c2ccc(C3(c4nc5ncc(C(F)(F)F)cc5[nH]4)CCC3)cc2)c1 [Example 30]",
    "UNIT": "nM",
    "IC50": 5.09
  },
  {
    "COMPOUND": "N#Cc1cccc(C(=O)Nc2ccc(C3(c4nc5ccc(Cl)cc5[nH]4)COC3)cc2)c1 [Example 11]",
    "UNIT": "nM",
    "IC50": 1.56
  }
]

# context switch: different compound, same IC50
stdin: Notebook: pull reported IC50 for UniProtKB P14902, entry Cc1cc(C2(c3nc4cc(C#N)cnc4[nH]3)CCC2)ccc1NC(=O)c1cccc(C#N)c1 [Example 15]
stdout: 15.9
